# test-protocol: hepatitis C replication reporter changes, two-sided – Huh7 cells, luciferase reporter, HCV replication inhibitor project, primary screen (AID 1109);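 note: huh7 hepatoma cells harbouring a luciferase neomycin HCV replicon reporter; luciferase luminescence as measure of HCV replicon replication; test concentration not given here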
# condition-info: Huh7 HCV replicon luciferase reporter, 48 h; higher = more signal
parameter-measured: z-score

- compound: "CN(C)CCCC[C@@H]1NC(=O)[C@@H]2C[C@H](C(=O)NCCCCCCNC(=O)CS)[C@H](c3ccc(O)cc3)N2C1=O"
  numeric-result: 0.278
- compound: "NC(=O)N1C(=O)C2C(C1=O)C1C=C(CCCO)C2C(C2CC2)N1Cc1sc2ccccc2c1Cl (stereo not given)"
  numeric-result: -1.63
- compound: "COc1cc(C(O)C2C=CC3C(=O)N(c4ccccc4)C(=O)C3N2Nc2ccccc2F)cc(OC)c1OC (stereo not given)"
  numeric-result: -0.892
- compound: "COCCOC(=O)N1C(=O)[C@@]2(c3cc(C#CCC(C(=O)OC)C(=O)OC)ccc31)[C@H](C(N)=O)[C@H]1C(=O)O[C@H](c3ccccc3)[C@H](c3ccccc3)N1[C@@H]2c1ccc(O)cc1"
  numeric-result: -2.77
- compound: "O=C(NCCN1CCOCC1)[C@@H]1c2ccccc2C(=O)N(Cc2ccccc2C(F)(F)F)[C@H]1c1ccc(CO)cc1"
  numeric-result: -0.513
- compound: "CCOC(=O)C1=CC[C@@H](c2ccc(OC)cc2)N(S(=O)(=O)c2ccc(C)cc2)[C@H]1c1ccc(C)cc1"
  numeric-result: -0.12
- compound: "C#CCN1[C@@H](Cc2ccccc2)C(=O)O[C@H](Cc2ccccc2)[C@@H]1/C=C/C1CC1"
  numeric-result: -2.28
- compound: "[N-]=[N+]=Nc1ccccc1[C@@H]1OC(c2ccc(OCCCO)cc2)=N[C@]1(Cc1ccccc1)C(=O)NCCN1CCOCC1"
  numeric-result: -2.41
- compound: "COC(=O)[C@]1(Cc2ccccc2)N=C(c2ccc(OCCCO)cc2)O[C@@H]1c1ccccc1CN=[N+]=[N-]"
  numeric-result: -3.37
- compound: "COC(=O)[C@@]1(Cc2ccccc2)[C@H]2c3cc(C(=O)N4CCCC4)n(Cc4ccc(OC)c(OC)c4)c3C[C@H]2CN1C(=O)c1ccccc1"
  numeric-result: -2.27
- compound: "C=CCC(OC(C)=O)[C@@H]1[C@@H](N(Cc2cc3ccccc3o2)C(=O)c2cccc3ccccc23)c2cc(OCCCO)ccc2N1C(=O)c1ccc2ccccc2n1 (stereo not given in full)"
  numeric-result: 0.0107
- compound: "COC(=O)[C@@]1(Cc2ccccc2)N=C(c2ccc(OCCCO)cc2)O[C@H]1c1ccccc1CN=[N+]=[N-]"
  numeric-result: -3.42
- compound: "CCCC[C@H]1OB(O)C[C@H]2C1=C(COc1ccccc1)C[C@H]1C(=O)C=CC(=O)[C@H]12"
  numeric-result: -1.36
- compound: "COc1ccc([Si](C)(C)[C@@H]2[C@@H](CC(=O)N(CCO)Cc3ccccc3)O[C@]3(C(=O)N(Cc4ccc(I)cc4)c4ccccc43)[C@H]2C)cc1"
  numeric-result: -4.03
- compound: "CO[C@H]1O[C@H](CO)[C@@H](OC(=O)Nc2ccccc2-c2ccccc2)[C@H](OC(=O)Nc2ccccc2)[C@H]1OC(=O)Nc1ccccc1"
  numeric-result: -2.49

====

# test-protocol: small molecules captured by biotinylated probe aFST – biochemical, small-molecule microarray, fluorescence 635/667, stem cell growth factor project, primary screen (AID 1086);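 note: score merges 667 nm fluorescence with signal-to-noise of each printed compound spot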
# condition-info: higher = more signal
List of composite z-score values.

- molecule: "C=C(C)[C@@H]1CC=C(C(O)C2C=CC3C(=O)N(C)C(=O)C3N2Nc2ccc([N+](=O)[O-])cc2[N+](=O)[O-])CC1 (some centres undefined)"
  composite z-score: 1.46
- molecule: "CC1CC/C=C\\[C@H]2OC34C=CCN(C(C)(C)C)C(=O)[C@H]3N(CCCO)C(=O)[C@@H]4C2C(=O)O1 (some centres undefined)"
  composite z-score: 0.182
- molecule: "Cc1ccc(N2C(=O)c3ccccc3[C@](C)(C(=O)NCCCN(C)C)[C@@H]2c2ccc(CO)cc2)nc1"
  composite z-score: 0.423
- molecule: "CC(C)C(=C=CC[C@H](O)c1ccccc1OCCO)C[C@H](O)c1cc(Cl)cc(Cl)c1O"
  composite z-score: 0.454

====

# test-protocol: JC-1 mitochondrial potential readout, lung cancer cells – cell-based, A549, JC-1 fluorescence, basal, 24 h, 100 nL, profiling panel (AID 1138);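 note: A549 lung adenocarcinoma cells under basal conditions with no added stimulus; test concentration not given here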
# condition-info: higher = more signal
parameter-measured: z-score

- compound: "CCN(CC)c1ccc(N2CC=CC34O[C@@H]5C=CCCOC(=O)C5[C@H]3C(=O)N(C(C)CO)[C@@H]4C2=O)cc1 (stereo partly drawn)"
  numeric-result: 0.337
- compound: "COC(=O)[C@@]1(Cc2ccccc2)[C@H]2c3cc(C(=O)N4CCCC4)n(Cc4ccc(OC)c(OC)c4)c3C[C@H]2CN1C(=O)c1ccccc1"
  numeric-result: 1.99
- compound: "COc1ccc(C#Cc2ccc3c(c2)[C@]2(C(=O)N3)[C@H](C(=O)O)[C@H]3C(=O)O[C@H](c4ccccc4)[C@H](c4ccccc4)N3[C@@H]2c2ccccc2OCCO)cc1"
  numeric-result: -2.71

====

# assay-target: NADPH oxidase 4 (Homo sapiens)
# test-protocol: compounds shifting NOX4 Amplex Red fluorescence – cell-based, HEK293-NOX4, tetracycline-induced, NOX inhibitor project, primary screen (AID 1160)
# condition-info: HEK293-NOX4, Amplex Red H2O2 fluorescence, 45 min; higher = more signal, called active from +8 up or from −8 down
Activity calls are given as the source filed them.
List of z-score values.

- molecular-string: "C=CC[C@@]1(C(=O)N(C)C)N=C(c2ccc(OCCCO)cc2)O[C@@H]1c1ccccc1CN=[N+]=[N-]"
  assay-target: "NADPH oxidase 4 (Homo sapiens)"
  z-score: "0.736 (inactive)"
- molecular-string: "Cc1ccc(S[C@]2(C(=O)NCCCN(C)C)CC(=O)N(Cc3ccccc3C(F)(F)F)[C@@H]2c2ccc(CO)cc2I)cc1"
  assay-target: "NADPH oxidase 4 (Homo sapiens)"
  z-score: "-1.08 (inactive)"
- molecular-string: "COc1ccc([Si](C)(C)[C@H]2[C@H](CC(=O)N3Cc4ccccc4C[C@H]3CO)O[C@@]3(C(=O)N(C)c4ccccc43)[C@@H]2C)cc1"
  assay-target: "NADPH oxidase 4 (Homo sapiens)"
  z-score: "-1.45 (inactive)"
- molecular-string: "CO[C@H]1O[C@H](CO)[C@@H](OC(=O)Nc2ccccc2-c2ccccc2)[C@H](OC(=O)Nc2ccccc2)[C@H]1OC(=O)Nc1ccccc1"
  assay-target: "NADPH oxidase 4 (Homo sapiens)"
  z-score: "-1.72 (inactive)"

====

# assay-target: Dihydroorotate dehydrogenase (quinone), mitochondrial (Plasmodium falciparum (isolate 3D7)) (UniProt Q08210)
# Sequence (Q08210 whole entry, looked up): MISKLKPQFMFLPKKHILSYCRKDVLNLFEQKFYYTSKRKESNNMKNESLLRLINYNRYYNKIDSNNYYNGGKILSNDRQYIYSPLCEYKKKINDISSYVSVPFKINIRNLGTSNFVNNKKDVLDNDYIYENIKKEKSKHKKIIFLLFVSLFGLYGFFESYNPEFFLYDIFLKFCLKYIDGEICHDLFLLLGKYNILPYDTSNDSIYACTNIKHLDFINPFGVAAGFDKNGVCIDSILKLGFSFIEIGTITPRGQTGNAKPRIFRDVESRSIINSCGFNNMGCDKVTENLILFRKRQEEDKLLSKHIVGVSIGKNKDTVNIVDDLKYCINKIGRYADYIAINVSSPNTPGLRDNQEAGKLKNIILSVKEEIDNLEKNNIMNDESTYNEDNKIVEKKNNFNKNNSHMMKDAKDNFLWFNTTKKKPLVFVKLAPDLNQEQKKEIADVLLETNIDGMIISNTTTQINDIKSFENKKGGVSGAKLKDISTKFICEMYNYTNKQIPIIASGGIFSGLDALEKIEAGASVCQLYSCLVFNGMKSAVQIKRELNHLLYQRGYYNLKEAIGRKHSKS
# test-protocol: inhibition of P. falciparum DHODH – biochemical, C-terminal His tag, absorbance 600 nm, primary screen (AID 1175);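 note: recombinant parasite enzyme with a five histidine tag at its C terminus; test concentration not given here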
# condition-info: PfDHODH enzyme, DCIP absorbance 600 nm; higher = more signal, called active from +8 up or from −8 down
Give 1.0 when the value for composite z-score is at least -0.1. Give 0.0 when it is less.

- compound: "C=CCC(OC(C)=O)[C@@H]1[C@@H](N(Cc2ccc(-c3ccccc3)cc2)C(=O)c2cccc3ccccc23)c2cc(OCCCO)ccc2N1C(=O)Cc1ccc(OC)cc1 (some centres undefined)"
  assigned-category: 1.0
- compound: "COC(=O)[C@H](Cc1ccccc1)N1CC2=CCCC=C[C@@H]2[C@H]1[C@H](O)Cc1ccccc1"
  assigned-category: 0.0
- compound: "CCCNC(=O)[C@@]1(c2ccc([N+](=O)[O-])cc2)CC(=O)N(C(C)C)[C@@H]1c1ccc(CO)cc1"
  assigned-category: 1.0
- compound: "CCN(CC)c1ccc(N2CC=CC34O[C@@H]5C=CCCOC(=O)C5[C@H]3C(=O)N(C(C)CO)[C@@H]4C2=O)cc1 (some centres undefined)"
  assigned-category: 1.0
- compound: "O=C1[C@@H]2[C@@H](CC(COc3ccccc3)=C([C@H](O)CCc3ccccc3)[C@@H]2CO)C(=O)N1Cc1ccccc1"
  assigned-category: 0.0
- compound: "CN(C)C(=O)[C@@]1(Cc2ccccc2CN=[N+]=[N-])COC(c2ccc(OCCCO)cc2)=N1"
  assigned-category: 0.0
- compound: "N#Cc1ccc(NN2C(C(O)C3CC=CCC3)C=CC3C(=O)N(c4ccccc4)C(=O)C32)cc1 (centres undefined)"
  assigned-category: 1.0
- compound: "COCCOC(=O)N1C(=O)[C@@]2(c3cc(C#CCC(C(=O)OC)C(=O)OC)ccc31)[C@H](C(=O)Nc1nc3ccccc3s1)[C@H]1C(=O)O[C@H](c3ccccc3)[C@H](c3ccccc3)N1[C@@H]2c1ccc(OCCO)cc1"
  assigned-category: 0.0
- compound: "COc1ccc(C(=O)Nc2cccc(CN3C(=O)[C@]4(O[C@H](CC(=O)N5Cc6ccccc6C[C@H]5CO)[C@@H]([Si](C)(C)c5ccc(OC)cc5)[C@@H]4C)c4ccccc43)c2)cc1"
  assigned-category: 0.0
- compound: "CN1C(=O)C2C(C1=O)C1C=C(c3ccc(CO)cc3)C2C(C2CC2)N1C (centres undefined)"
  assigned-category: 1.0
- compound: "CCOC(=O)C1=CC[C@@H](c2ccc(OC)cc2)N(S(=O)(=O)c2ccc(C)cc2)[C@H]1c1ccc(C)cc1"
  assigned-category: 0.0
- compound: "C=CCC(OC(C)=O)[C@@H]1[C@@H](N(Cc2ccc(-c3cccc(C(F)(F)F)c3)o2)C(=O)Cc2ccc(F)cc2)c2cc(OCCCO)ccc2N1C(=O)Cc1ccc2ccccc2c1 (some centres undefined)"
  assigned-category: 0.0
- compound: "COCCCNC(=O)[C@@]1(CCS(=O)(=O)c2ccccc2)COC(c2ccc(OCCCO)cc2)=N1"
  assigned-category: 0.0
